test system: Haemophilus influenzae R252; experiment: standard agar-dilution assay (MIC); type: cell-based; conditions: Haemophilus influenzae R252, ampicillin-resistant strain, unit assumed

- compound: "CCC1OC(=O)CC(O)C(C)C(OC2OC(C)C(OC3CC(C)(O)C(O)C(C)O3)C(N(C)C)C2OC(C)=O)C(CC=O)CC(C)C(=O)C=CC(C)=CC1COC(=O)COc1ccccc1 (stereo not shown)"
  MIC, µg/mL: 8
- compound: "CCC1OC(=O)CC(O)C(C)C(OC2OC(C)C(OC3CC(C)(O)C(O)C(C)O3)C(N(C)C)C2O)C(CC=O)CC(C)C(=O)C=CC(C)=CC1COC(=O)OC (stereo not shown)"
  MIC, µg/mL: 8
- compound: "CCC1OC(=O)CC(O)C(C)C(OC2OC(C)C(OC3CC(C)(O)C(O)C(C)O3)C(N(C)C)C2OC(C)=O)C(CC=O)CC(C)C(=O)C=CC(C)=CC1COC(=O)NCc1ccccc1 (stereo not shown)"
  MIC, µg/mL: 4
- compound: "CCC1OC(=O)CC(O)C(C)C(OC2OC(C)C(OC3CC(C)(O)C(O)C(C)O3)C(N(C)C)C2OC(C)=O)C(CC=O)CC(C)C(=O)C=CC(C)=CC1COC(=O)C=Cc1ccccc1 (stereo not shown)"
  MIC, µg/mL: 128

Origin of the recorded values: patent US4396613A
